# method.notes: Plasma pharmacokinetics after single oral dose of Δ8-THCV in MCT oil (LC-MS/MS, non-compartmental analysis)
# Format: in vivo, human
# stated.conditions: human, plasma, oral, 200 mg, 1 h; 200 mg Δ8-THCV dose; Median (IQ Range)
measure.name: concentration at 1 h (ng/mL)

[[record]]
compound = "CCCc1cc(O)c2c(c1)OC(C)(C)[C@@H]1CCC(C)=C[C@@H]21 [Δ9-THCV, Δ9-tetrahydrocannabivarin]"
units_text = "ng/mL"
obs_value = 0

[[record]]
compound = "CCCCCc1cc(O)c2c(c1)OC(C)(C)[C@@H]1CC=C(C(=O)O)CC21 (single isomer, unassigned; (+)) [Δ8-THC-COOH, (+)-11-nor-Δ8-THC-9-carboxylic acid]"
units_text = "ng/mL"
obs_value = 0

[[record]]
compound = "CCCc1cc(O)c2c(c1)OC(C)(C)[C@@H]1CC=C(CO)C[C@@H]21 (racemic) [11-OH-Δ8-THCV, (±)-11-hydroxy-Δ8-THCV]"
units_text = "ng/mL"
obs_value = 0

[[record]]
compound = "CCCc1cc(O)c2c(c1)OC(C)(C)[C@@H]1CC=C(C)C[C@@H]21 [Δ8-THCV, Δ8-tetrahydrocannabivarin]"
units_text = "ng/mL"
obs_value = 2

[[record]]
compound = "CCCc1cc(O)c2c(c1)OC(C)(C)[C@@H]1CC=C(C(=O)O)C[C@@H]21 [Δ8-THCV-COOH, 11-nor-9-carboxy-Δ8-THCV]"
units_text = "ng/mL"
obs_value = 108

[[record]]
compound = "CCCc1cc(O)c2c(c1)OC(C)(C)[C@@H]1CCC(C(=O)O)=C[C@@H]21 [Δ9-THCV-COOH, 11-nor-9-carboxy-Δ9-THCV]"
units_text = "ng/mL"
obs_value = 2.7


----------
# method.notes: Plasma pharmacokinetics after single oral dose of Δ8-THCV in MCT oil (LC-MS/MS, non-compartmental analysis)
# Type: in vivo, human
# stated.conditions: Predose; 25 mg Δ8-THCV dose; Mean (SD, %CV)
measure.name: plasma concentration

[[record]]
compound = "CCCCCc1cc(O)c2c(c1)OC(C)(C)[C@@H]1CC=C(C(=O)O)CC21 (single isomer, unassigned; (+)) [Δ8-THC-COOH, (+)-11-nor-Δ8-THC-9-carboxylic acid]"
measure_name = "plasma concentration"
obs_value = "0 (±0, --) ng/mL"

[[record]]
compound = "CCCc1cc(O)c2c(c1)OC(C)(C)[C@@H]1CCC(C)=C[C@@H]21 [Δ9-THCV, Δ9-tetrahydrocannabivarin]"
measure_name = "plasma concentration"
obs_value = "0 (±0, --) ng/mL"

[[record]]
compound = "CCCc1cc(O)c2c(c1)OC(C)(C)[C@@H]1CC=C(C(=O)O)C[C@@H]21"
measure_name = "plasma concentration"
obs_value = "0.3 (±1, 374) ng/mL"

[[record]]
compound = "CCCc1cc(O)c2c(c1)OC(C)(C)[C@@H]1CC=C(CO)C[C@@H]21 (racemic) [11-OH-Δ8-THCV, (±)-11-hydroxy-Δ8-THCV]"
measure_name = "plasma concentration"
obs_value = "0 (±0, --) ng/mL"

[[record]]
compound = "CCCc1cc(O)c2c(c1)OC(C)(C)[C@@H]1CCC(C(=O)O)=C[C@@H]21"
measure_name = "plasma concentration"
obs_value = "0 (±0, --) ng/mL"

[[record]]
compound = "CCCc1cc(O)c2c(c1)OC(C)(C)[C@@H]1CC=C(C)C[C@@H]21 [Δ8-THCV, Δ8-tetrahydrocannabivarin]"
measure_name = "plasma concentration"
obs_value = "0 (±0, --) ng/mL"

